# hAMY3R EC50 (cAMP) values compiled below
Study Target: T1, hAMY3R (human, UniProt P30988)
T1 sequence 1: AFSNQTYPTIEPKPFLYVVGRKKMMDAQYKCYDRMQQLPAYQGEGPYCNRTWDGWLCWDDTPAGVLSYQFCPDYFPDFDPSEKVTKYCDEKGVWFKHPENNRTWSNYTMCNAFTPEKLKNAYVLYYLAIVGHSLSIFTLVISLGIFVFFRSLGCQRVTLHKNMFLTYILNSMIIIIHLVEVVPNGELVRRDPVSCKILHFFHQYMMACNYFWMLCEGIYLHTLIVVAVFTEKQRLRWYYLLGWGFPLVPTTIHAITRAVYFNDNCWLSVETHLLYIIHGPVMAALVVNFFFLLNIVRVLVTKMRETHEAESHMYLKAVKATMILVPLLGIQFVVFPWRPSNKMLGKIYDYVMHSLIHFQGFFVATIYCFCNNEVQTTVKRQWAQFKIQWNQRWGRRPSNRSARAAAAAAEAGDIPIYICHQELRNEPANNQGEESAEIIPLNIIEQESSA
T1 sequence 2: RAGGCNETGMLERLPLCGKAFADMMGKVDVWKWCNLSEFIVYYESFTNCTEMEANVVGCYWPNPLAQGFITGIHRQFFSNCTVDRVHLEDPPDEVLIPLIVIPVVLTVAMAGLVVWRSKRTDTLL
Protocol Details: cell-based or functional assay
Numbered stars: 1 amine (or outer) side, 2 acyl side, 3 side chain; on linkers, the order of the positions; unused ones are H or OH. Bridge positions count the residues as written; N and C are the ends. Square brackets hold non-standard residues; d marks the D form. Side chains are listed from the residue outwards. Ends that are not written are not given here. * marks the point of attachment. C20 diacid = O=C(O)CCCCCCCCCCCCCCCCCCC(=O)*; γGlu = O=C(O)[C@H](CCC(=O)[*:2])N[*:1]; Hyp = O=C(O)[C@@H]1C[C@@H](O)CN1; AEEA = NCCOCCOCC(=O)O

In the examples that follow, each entry is paired with its recorded hAMY3R EC50 (cAMP).
1. GCRFGTCTVQRLAHQIYQFTDKDKDNVAPRSNISPQG[Hyp]-NH2 (disulfide 2-7 (inferred); ends not checked) [SEQ ID NO: 158] | 0.048 nM
2. {C20 diacid-γGlu}-KCNTSTCTVQRLAHQIAQFTDKDKDNVAPPTNVGSNG[Hyp]-NH2 (disulfide 2-7 (inferred); not fully specified; ends not checked) [SEQ ID NO: 62] | 0.012 nM

The measured hAMY3R EC50 (cAMP) associated with GCRTGTCTVQRLAHQIYQFTDKFKDNVAPRSKISPQK[Hyp]-NH2 (disulfide 2-7 (inferred); ends not checked) [SEQ ID NO: 206] reads 0.13 nM

The measured hAMY3R EC50 (cAMP) associated with KCK([AEEA-AEEA-γGlu-C20 diacid])TATCTVQRLAEQIYQFTDKDKDNVAPPTNVGSNG[Hyp]-NH2 (disulfide 2-7 (inferred); ends not checked) [SEQ ID NO: 36] reads 0.009 nM

The measured hAMY3R EC50 (cAMP) associated with KCNTATCTVQRLAEQIK([AEEA-AEEA-γGlu-C20 diacid])QFTDKDKDNVAPPTNVGSNG[Hyp]-NH2 (disulfide 2-7 (inferred); ends not checked) [SEQ ID NO: 136] reads 0.033 nM

The measured hAMY3R EC50 (cAMP) associated with GCRFGTCTVQRLAHFLYQFTDKDKDNVAPRTNIGPQGY [SEQ ID NO: 364] reads 0.01 nM

The measured hAMY3R EC50 (cAMP) associated with {C20 diacid-γGlu}-KCNTATCTVQRLAHQIYQFTDKDKDNVAPPTNVGSNG[Hyp]-NH2 (disulfide 2-7 (inferred); not fully specified; ends not checked) [SEQ ID NO: 77] reads 0.014 nM

All values here come from patent US12139520B2.
